measured_on: KDM6A (UTX) (Homo sapiens, UniProt O15550)
Construct: purchased BPS Bioscience
Sequence (O15550 whole entry): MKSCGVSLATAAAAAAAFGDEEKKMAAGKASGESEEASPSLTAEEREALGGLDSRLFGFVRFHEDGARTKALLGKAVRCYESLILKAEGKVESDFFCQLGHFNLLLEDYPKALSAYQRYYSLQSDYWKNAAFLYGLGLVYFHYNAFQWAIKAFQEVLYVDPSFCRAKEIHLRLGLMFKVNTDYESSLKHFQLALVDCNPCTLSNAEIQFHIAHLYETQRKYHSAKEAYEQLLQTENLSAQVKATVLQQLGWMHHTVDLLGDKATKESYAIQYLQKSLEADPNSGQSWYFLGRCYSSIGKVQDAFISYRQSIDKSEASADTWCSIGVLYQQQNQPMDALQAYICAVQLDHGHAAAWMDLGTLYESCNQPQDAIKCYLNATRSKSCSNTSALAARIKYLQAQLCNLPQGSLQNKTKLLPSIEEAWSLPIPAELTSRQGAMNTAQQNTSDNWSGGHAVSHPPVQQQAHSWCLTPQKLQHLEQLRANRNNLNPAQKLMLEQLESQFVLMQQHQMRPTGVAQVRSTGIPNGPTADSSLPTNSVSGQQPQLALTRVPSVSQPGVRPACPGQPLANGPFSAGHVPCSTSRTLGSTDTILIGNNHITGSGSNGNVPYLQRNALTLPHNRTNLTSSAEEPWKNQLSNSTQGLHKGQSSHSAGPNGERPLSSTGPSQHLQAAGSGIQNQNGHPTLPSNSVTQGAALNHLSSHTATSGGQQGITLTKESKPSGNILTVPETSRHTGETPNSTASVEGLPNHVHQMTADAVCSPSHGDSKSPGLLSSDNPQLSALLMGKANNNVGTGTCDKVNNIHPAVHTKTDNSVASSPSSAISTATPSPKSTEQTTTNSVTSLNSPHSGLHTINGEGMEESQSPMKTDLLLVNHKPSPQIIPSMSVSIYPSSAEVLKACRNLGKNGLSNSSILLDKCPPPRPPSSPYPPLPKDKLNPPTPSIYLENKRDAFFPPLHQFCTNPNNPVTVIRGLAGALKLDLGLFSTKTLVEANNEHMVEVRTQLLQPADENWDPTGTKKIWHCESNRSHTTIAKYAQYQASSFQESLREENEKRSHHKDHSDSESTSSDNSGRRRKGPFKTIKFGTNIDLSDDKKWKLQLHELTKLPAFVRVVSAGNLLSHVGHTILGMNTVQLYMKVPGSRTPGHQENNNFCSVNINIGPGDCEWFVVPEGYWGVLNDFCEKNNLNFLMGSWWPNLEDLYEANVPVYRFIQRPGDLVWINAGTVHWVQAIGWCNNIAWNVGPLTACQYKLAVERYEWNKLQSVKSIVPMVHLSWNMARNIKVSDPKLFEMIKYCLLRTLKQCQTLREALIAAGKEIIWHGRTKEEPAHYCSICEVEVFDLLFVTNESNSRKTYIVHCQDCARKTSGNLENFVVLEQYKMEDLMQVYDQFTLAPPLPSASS
assay_explanation: KDM cell-free assay (AlphaScreen, BPS Bioscience)
Format: biochemical
experimental_context: 1 μM; Table 3
Give inhibition at 1 µM for every item shown.
Numbers only, in %.

Cc1c(O)c(=O)ccn1CCCCCCn1ccc(=O)c(O)c1C	2
Cc1c(O)c(=O)ccn1C1CCC(CC2CCC(n3ccc(=O)c(O)c3C)CC2)CC1 (stereo not shown)	9
Cc1c(O)c(=O)ccn1[C@H]1CC[C@H](n2ccc(=O)c(O)c2C)CC1	5

// batch mode: one inhibition at 1 µM value per listed entry
1. Cc1c(O)c(=O)ccn1CCCCCCCn1ccc(=O)c(O)c1C
2. Cc1c(O)c(=O)ccn1Cc1ccc(Cn2ccc(=O)c(O)c2C)cc1

OUTPUT:
3
5

// batch mode: one inhibition at 1 µM value per listed entry
1. Cc1c(O)c(=O)ccn1CCCCn1ccc(=O)c(O)c1C
2. Cc1c(O)c(=O)ccn1CCCCCn1ccc(=O)c(O)c1C

OUTPUT:
[4, 1]

----------
measured_on: KDM3A (JMJD1A) (Homo sapiens)
Sequence (Q9Y4C1 1-1321): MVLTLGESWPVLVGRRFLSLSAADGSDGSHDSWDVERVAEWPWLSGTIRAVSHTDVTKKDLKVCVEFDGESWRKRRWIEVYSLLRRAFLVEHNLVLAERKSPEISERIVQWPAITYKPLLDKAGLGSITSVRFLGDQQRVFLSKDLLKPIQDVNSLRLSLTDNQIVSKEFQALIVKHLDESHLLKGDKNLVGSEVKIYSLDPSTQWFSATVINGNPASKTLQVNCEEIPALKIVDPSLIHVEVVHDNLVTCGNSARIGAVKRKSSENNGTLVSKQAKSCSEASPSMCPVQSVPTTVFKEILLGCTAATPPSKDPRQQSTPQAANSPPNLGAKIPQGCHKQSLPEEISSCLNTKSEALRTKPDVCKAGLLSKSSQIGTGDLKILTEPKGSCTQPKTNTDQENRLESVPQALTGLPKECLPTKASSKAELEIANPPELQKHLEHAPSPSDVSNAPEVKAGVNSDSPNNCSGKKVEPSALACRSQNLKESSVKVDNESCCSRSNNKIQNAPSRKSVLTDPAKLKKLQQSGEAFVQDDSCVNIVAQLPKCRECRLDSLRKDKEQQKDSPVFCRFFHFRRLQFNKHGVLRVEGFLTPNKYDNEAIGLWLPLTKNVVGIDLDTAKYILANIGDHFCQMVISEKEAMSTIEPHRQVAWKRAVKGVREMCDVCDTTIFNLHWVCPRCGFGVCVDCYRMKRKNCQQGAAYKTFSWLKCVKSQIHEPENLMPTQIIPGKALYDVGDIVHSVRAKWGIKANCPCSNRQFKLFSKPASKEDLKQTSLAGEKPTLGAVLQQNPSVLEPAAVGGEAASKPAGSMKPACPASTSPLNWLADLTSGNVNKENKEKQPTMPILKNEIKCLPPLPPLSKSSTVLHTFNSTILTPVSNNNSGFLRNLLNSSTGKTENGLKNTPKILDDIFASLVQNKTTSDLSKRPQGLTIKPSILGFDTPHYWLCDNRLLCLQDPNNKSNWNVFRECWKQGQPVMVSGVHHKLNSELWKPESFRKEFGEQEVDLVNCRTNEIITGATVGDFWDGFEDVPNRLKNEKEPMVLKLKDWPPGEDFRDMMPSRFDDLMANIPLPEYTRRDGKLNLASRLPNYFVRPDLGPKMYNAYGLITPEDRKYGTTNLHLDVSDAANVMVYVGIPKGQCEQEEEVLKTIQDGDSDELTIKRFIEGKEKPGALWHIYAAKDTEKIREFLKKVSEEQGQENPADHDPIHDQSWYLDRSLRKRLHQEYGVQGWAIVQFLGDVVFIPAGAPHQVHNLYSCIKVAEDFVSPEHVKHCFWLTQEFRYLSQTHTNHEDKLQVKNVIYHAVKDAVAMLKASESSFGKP
readout_type: IC50

INPUT: Given the compound "Cc1c(O)c(=O)ccn1C" , what is its reported IC50?
OUTPUT: > 25 µM

----------
measured_on: KDM3B (JMJD1B) (Homo sapiens, UniProt Q7LBC6)
Sequence (Q7LBC6 whole entry): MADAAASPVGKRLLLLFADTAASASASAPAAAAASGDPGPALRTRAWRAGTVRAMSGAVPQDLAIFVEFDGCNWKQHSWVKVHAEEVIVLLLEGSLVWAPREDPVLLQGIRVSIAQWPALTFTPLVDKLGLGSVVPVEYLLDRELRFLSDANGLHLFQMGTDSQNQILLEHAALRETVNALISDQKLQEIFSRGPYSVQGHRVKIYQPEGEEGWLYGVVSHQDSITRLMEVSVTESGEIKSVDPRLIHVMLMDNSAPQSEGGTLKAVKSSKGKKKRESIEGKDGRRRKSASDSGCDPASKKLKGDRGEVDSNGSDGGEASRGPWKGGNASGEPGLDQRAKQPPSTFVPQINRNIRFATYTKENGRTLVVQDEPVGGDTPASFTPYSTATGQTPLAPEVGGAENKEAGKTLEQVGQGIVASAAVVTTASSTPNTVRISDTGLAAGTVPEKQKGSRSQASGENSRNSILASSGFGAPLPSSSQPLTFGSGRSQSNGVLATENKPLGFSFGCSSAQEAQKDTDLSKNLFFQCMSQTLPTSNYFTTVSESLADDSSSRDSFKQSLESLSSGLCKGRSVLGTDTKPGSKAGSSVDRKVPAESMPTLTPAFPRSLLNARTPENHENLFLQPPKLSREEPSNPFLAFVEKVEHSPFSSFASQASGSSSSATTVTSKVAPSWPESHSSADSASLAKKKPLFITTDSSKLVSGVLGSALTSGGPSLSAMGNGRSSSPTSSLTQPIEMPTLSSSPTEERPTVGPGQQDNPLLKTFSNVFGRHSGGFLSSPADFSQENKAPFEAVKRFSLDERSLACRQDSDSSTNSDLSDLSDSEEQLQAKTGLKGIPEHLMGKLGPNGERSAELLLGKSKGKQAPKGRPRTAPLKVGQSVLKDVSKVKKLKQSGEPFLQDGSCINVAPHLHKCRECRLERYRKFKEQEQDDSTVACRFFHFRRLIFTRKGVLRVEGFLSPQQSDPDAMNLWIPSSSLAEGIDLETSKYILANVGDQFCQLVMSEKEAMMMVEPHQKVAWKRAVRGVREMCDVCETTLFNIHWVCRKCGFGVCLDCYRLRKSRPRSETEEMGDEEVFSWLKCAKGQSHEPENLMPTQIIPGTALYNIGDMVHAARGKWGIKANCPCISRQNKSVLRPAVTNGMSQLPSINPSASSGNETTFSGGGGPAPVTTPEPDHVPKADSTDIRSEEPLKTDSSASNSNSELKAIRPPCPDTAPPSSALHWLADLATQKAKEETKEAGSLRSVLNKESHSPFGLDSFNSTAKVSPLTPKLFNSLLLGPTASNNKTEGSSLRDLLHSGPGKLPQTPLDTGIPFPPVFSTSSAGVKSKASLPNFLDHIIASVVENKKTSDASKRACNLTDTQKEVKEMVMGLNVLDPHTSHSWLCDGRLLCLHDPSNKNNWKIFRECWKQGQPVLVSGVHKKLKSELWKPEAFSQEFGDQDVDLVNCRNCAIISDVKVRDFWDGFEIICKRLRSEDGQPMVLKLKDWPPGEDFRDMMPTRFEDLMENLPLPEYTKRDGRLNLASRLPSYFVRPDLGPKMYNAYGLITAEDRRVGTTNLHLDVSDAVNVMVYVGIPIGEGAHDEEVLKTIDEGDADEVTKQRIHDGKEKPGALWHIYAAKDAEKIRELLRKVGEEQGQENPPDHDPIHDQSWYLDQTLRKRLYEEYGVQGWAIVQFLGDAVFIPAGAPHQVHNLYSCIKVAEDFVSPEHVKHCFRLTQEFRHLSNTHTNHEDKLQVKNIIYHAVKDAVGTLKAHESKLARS
readout_type: IC50

INPUT: Given the molecule Cc1c(O)c(=O)ccn1C [DFP, Deferiprone] , what is its reported IC50?
OUTPUT: > 25 µM

----------
measured_on: KDM6A (UTX) (Homo sapiens)
Construct: purchased BPS Bioscience
assay_explanation: KDM cell-free assay (AlphaScreen, BPS Bioscience)
Type: biochemical
experimental_context: 1 μM; Table 2
Give inhibition at 1 µM for every item shown.

COc1ccccc1-c1cn(CCCCCn2ccc(=O)c(O)c2C)nn1 [2h]	3%
Cc1ccc(-c2cn(CCCCn3ccc(=O)c(O)c3C)nn2)cc1 [2e]	13%
COc1cccc(-c2cn(CCCCCn3ccc(=O)c(O)c3C)nn2)c1 [2j]	8%
Cc1c(O)c(=O)ccn1CCCCCn1cc(-c2cccc(F)c2)nn1 [2n]	5%

Then there is this molecule:
INPUT: Given the molecule Cc1c(O)c(=O)ccn1CCCCCCn1cc(-c2ccccc2)nn1 [1e] , what is its reported inhibition at 1 µM?
OUTPUT: 12%

----------
measured_on: UniProtKB P41229
readout_type: pIC50
Numbers only, as −log10 of the molar value.

INPUT: Please tell me: pIC50 of Cc1c(O)c(=O)ccn1C [DFP, Deferiprone] , system UniProtKB P41229?
OUTPUT: 5.25

----------
measured_on: KDM6A (UTX) (Homo sapiens, UniProt O15550)
Construct: purchased BPS Bioscience
assay_explanation: KDM cell-free assay (AlphaScreen, BPS Bioscience)
Assay type: biochemical
experimental_context: 10 μM; Table 2
readout_type: inhibition at 10 µM (%)
Numbers only, in %.

Before answering, review these 2 worked examples.
Cc1c(O)c(=O)ccn1CCCCCn1cc(-c2ccccc2F)nn1	100
Cc1c(O)c(=O)ccn1CCCCCCn1cc(-c2ccc(-c3ccccc3)cc2)nn1	49

// batch mode: one inhibition at 10 µM value per listed entry
1. Cc1ccc(-c2cn(CCCCn3ccc(=O)c(O)c3C)nn2)cc1
2. Cc1c(O)c(=O)ccn1CCCCCn1cc(-c2cccc(F)c2)nn1
3. COc1ccc2cc(-c3cn(CCCCCCn4ccc(=O)c(O)c4C)nn3)ccc2c1
4. Cc1c(O)c(=O)ccn1CCCCCn1cc(-c2ccccn2)nn1

OUTPUT:
[100, 100, 57, 99]

// batch mode: one inhibition at 10 µM value per listed entry
1. Cc1c(O)c(=O)ccn1CCn1cc(-c2ccccc2)nn1
2. COc1ccc(-c2cn(CCCCCn3ccc(=O)c(O)c3C)nn2)cc1
3. Cc1c(O)c(=O)ccn1CCCCCn1cc(-c2ccc(-c3ccncc3)cc2)nn1
4. Cc1c(O)c(=O)ccn1CCCCCCn1cc(-c2ccccc2)nn1
5. Cc1c(O)c(=O)ccn1CCCCCn1cc(-c2ccc(F)cc2)nn1
6. COc1ccccc1-c1cn(CCCCCn2ccc(=O)c(O)c2C)nn1
7. Cc1ccccc1-c1cn(CCCCn2ccc(=O)c(O)c2C)nn1
8. COc1cccc(-c2cn(CCCCCn3ccc(=O)c(O)c3C)nn2)c1

OUTPUT:
1. 96
2. 100
3. 99
4. 98
5. 100
6. 99
7. 100
8. 100

// batch mode: one inhibition at 10 µM value per listed entry
1. Cc1c(O)c(=O)ccn1CCCCCCn1cc(-c2ccc(-c3ccncc3)cc2)nn1
2. Cc1cccc(-c2cn(CCCCn3ccc(=O)c(O)c3C)nn2)c1
3. COc1cccc(-c2cn(CCCCn3ccc(=O)c(O)c3C)nn2)c1
4. Cc1c(O)c(=O)ccn1CCCCCn1cc(-c2ccccc2)nn1

OUTPUT:
99
100
100
100

INPUT: Given the compound "Cc1c(O)c(=O)ccn1CCCCCn1cc(-c2ccccc2C(F)(F)F)nn1" , what is its reported inhibition at 10 µM?
OUTPUT: 99

----------
measured_on: KDM5B (Jarid1B) (Homo sapiens, UniProt Q9UGL1)
Sequence (Q9UGL1 whole entry): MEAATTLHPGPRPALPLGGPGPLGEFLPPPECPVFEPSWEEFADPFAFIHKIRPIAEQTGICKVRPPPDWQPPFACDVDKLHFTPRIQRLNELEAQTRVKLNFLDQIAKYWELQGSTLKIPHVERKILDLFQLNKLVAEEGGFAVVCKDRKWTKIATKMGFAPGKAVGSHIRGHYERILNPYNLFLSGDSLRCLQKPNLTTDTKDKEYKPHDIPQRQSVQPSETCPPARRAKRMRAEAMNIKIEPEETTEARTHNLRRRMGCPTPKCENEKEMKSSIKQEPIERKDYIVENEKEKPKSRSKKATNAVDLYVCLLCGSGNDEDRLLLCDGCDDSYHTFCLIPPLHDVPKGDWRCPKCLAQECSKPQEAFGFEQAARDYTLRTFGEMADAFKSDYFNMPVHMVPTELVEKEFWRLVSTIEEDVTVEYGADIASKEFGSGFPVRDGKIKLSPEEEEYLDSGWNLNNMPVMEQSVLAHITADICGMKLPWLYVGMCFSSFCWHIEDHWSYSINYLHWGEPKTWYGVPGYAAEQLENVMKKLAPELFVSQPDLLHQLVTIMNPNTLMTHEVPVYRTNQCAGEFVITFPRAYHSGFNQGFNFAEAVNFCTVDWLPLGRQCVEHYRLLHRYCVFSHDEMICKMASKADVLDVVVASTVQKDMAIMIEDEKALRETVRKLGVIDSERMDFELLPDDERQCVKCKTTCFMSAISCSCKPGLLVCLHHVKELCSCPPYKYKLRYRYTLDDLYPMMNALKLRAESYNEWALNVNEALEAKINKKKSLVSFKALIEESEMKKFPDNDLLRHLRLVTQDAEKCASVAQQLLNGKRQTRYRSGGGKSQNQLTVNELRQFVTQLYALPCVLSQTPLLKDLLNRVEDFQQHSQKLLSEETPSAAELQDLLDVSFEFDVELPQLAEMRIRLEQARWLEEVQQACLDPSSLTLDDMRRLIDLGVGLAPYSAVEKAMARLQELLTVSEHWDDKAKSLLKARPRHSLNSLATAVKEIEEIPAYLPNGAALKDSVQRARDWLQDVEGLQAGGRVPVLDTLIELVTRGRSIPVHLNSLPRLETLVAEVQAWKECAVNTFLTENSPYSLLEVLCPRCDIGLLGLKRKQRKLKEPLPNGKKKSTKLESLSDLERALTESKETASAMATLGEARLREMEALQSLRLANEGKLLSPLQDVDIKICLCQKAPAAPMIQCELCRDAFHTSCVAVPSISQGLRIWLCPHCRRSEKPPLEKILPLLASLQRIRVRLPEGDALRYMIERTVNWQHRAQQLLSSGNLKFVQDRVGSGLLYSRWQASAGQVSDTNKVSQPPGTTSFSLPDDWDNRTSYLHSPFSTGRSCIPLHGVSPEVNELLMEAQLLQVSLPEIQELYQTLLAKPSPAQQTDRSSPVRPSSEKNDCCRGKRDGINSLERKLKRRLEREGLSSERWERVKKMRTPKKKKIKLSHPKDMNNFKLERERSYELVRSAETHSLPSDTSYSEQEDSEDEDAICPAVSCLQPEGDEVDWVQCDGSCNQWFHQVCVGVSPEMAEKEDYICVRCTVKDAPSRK
pIC50: −log10 of the molar value.
readout_type: pIC50

INPUT: Given the compound "Cc1c(O)c(=O)ccn1C" , what is its reported pIC50?
OUTPUT: < 4.60

----------
measured_on: KDM6A (UTX) (Homo sapiens)
Construct: purchased BPS Bioscience
assay_explanation: KDM cell-free assay (AlphaScreen, BPS Bioscience)
Type: biochemical
experimental_context: 1 μM; Table 2
Give inhibition at 1 µM for every item shown.
One number for each entry, in %.

Before answering, review these 3 worked examples.
Cc1c(O)c(=O)ccn1CCCCCn1cc(-c2ccccc2C(F)(F)F)nn1	15
Cc1c(O)c(=O)ccn1CCCCCCn1cc(-c2ccc(-c3ccccc3)cc2)nn1	12
Cc1ccccc1-c1cn(CCCCn2ccc(=O)c(O)c2C)nn1	6

INPUT: Please tell me: inhibition at 1 µM of "COc1ccc(-c2cn(CCCCCn3ccc(=O)c(O)c3C)nn2)cc1" , system KDM6A (UTX) (Homo sapiens)?
OUTPUT: 4
